# TARGET_OR_TEST_SYSTEM: p110β Type Ia human PI3K (Homo sapiens)
# Construct: full length DNA of each of the p110α, p110β and p110δ Type Ia human PI3K p110 isoforms; 6-His; made in house; host or cells: baculovirus expression system (Sf9 is named only for PI3Kγ)
# METHOD: PI 3-Kinase Assay (Additional Pharmacological Analysis, AlphaScreen)
# Type: biochemical
# ASSAY_CONDITIONS: 40 μM ATP
# Description: In order to assess the ability of compounds to inhibit PI3K enzymes, especially PI3Kγ, a novel PI3K assay technology was established. The PI3K enzyme reaction product phosphatidylinositol 3,4,5-trisphosphate (PtdIns(3,4,5)P3) is detected using the pleckstrin homology (PH) domain from general receptor for phosphoinositides (GRP1) as probe. […] Biotinylated PtdIns(3,4,5)P3 was detected using AlphaScreen® technology. […]
Reported log10 IC50 values for a set of compounds
EXPERIMENTAL_READOUT: log10 IC50 (log10 of the value in µM)

- COMPOUND: "CC(=O)Nc1nc(C)c(-c2cnc(Cl)c(S(C)(=O)=O)c2)s1"
  log10 IC50: -0.13
- COMPOUND: "CC(=O)Nc1nc(C)c(-c2cncc(S(=O)(=O)NCCO)c2)s1"
  log10 IC50: 0.28
- COMPOUND: "CC(=O)Nc1nc(C)c(-c2cnc(Cl)c(NS(=O)(=O)CCCN3CCN(C)CC3)c2)s1 [Example 31, bis(trifluoroacetate)]"
  log10 IC50: -0.60
- COMPOUND: "CC(=O)Nc1nc(C)c(-c2cnc(Cl)c(NCc3ccccc3)c2)s1"
  log10 IC50: -0.20
- COMPOUND: "COCC(=O)Nc1nc(C)c(-c2cnc(Cl)c(NS(=O)(=O)c3ccccc3)c2)s1"
  log10 IC50: -0.92

----------
Reported IC50 values for a set of molecules
# TARGET_OR_TEST_SYSTEM: p110δ Type Ia human PI3K (Homo sapiens)
# Construct: full length DNA of each of the p110α, p110β and p110δ Type Ia human PI3K p110 isoforms; 6-His; made in house; host or cells: baculovirus expression system (Sf9 is named only for PI3Kγ)
# Sequence (O00329 whole entry, canonical isoform): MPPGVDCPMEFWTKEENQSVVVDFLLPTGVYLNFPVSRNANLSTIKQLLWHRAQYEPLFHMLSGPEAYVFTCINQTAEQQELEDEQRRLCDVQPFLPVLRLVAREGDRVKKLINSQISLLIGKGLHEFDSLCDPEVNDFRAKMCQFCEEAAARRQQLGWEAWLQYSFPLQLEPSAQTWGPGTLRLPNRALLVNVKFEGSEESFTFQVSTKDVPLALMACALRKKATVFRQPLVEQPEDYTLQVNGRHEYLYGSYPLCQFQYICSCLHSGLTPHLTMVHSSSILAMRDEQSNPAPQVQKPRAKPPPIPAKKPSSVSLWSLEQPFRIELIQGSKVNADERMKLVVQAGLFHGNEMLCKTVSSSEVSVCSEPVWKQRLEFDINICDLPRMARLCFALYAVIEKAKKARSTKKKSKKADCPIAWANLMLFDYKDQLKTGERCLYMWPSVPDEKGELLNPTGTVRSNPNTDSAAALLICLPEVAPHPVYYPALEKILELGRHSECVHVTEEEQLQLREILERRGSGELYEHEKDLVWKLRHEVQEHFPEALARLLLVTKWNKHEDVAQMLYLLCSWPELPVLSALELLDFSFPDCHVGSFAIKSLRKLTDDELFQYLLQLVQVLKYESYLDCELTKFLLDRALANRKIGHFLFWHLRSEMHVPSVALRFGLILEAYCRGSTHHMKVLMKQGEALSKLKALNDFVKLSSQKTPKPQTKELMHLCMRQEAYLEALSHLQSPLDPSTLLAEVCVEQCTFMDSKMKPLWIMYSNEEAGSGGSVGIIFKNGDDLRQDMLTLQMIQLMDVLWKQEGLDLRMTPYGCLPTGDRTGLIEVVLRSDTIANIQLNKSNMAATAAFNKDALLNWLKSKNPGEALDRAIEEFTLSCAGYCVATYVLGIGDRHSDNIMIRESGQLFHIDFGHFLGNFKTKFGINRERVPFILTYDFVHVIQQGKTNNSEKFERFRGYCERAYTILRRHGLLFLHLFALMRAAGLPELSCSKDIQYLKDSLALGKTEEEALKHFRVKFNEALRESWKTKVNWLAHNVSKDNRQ
# Sequence (P27986 whole entry partner, canonical isoform): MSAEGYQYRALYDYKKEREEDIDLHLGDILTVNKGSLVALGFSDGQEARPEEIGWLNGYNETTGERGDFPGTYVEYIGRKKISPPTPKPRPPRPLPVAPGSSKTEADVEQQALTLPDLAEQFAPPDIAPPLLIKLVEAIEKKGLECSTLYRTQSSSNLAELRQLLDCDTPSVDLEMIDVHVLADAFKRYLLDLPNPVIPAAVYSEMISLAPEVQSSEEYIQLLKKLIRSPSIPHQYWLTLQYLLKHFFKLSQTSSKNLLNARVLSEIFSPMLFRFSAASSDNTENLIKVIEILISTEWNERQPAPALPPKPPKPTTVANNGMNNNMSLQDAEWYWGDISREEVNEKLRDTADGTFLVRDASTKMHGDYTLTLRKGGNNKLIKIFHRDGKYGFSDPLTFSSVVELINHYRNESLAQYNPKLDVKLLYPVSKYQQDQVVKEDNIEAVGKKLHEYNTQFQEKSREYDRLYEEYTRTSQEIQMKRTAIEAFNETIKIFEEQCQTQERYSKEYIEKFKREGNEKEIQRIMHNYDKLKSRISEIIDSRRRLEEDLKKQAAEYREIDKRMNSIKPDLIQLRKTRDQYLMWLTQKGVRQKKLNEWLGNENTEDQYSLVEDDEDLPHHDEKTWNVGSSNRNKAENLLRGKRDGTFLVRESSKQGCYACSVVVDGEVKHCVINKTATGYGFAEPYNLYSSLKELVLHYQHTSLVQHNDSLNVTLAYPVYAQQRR
# METHOD: PI 3-Kinase Assay (Additional Pharmacological Analysis, AlphaScreen)
# Format: biochemical
# ASSAY_CONDITIONS: 40 μM ATP

- MOLECULE: "COCC(=O)Nc1nc(C)c(-c2cnc(Cl)c(NS(=O)(=O)c3ccccc3)c2)s1 [Example 56]"
  CMP: "<"
  IC50 [µM]: 0.1
- MOLECULE: "CC(=O)Nc1nc(C)c(-c2cncc(S(=O)(=O)NCCO)c2)s1 [Example 8]"
  CMP: "="
  IC50 [µM]: 0.2
- MOLECULE: "CC(=O)Nc1nc(C)c(-c2cnc(Cl)c(S(C)(=O)=O)c2)s1 [Example 7]"
  CMP: "="
  IC50 [µM]: 0.15
- MOLECULE: "CC(=O)Nc1nc(C)c(-c2cnc(Cl)c(NS(=O)(=O)CCCN3CCN(C)CC3)c2)s1 [Example 31, bis(trifluoroacetate)]"
  CMP: "="
  IC50 [µM]: 0.01
- MOLECULE: "CC(=O)Nc1nc(C)c(-c2cnc(Cl)c(NCc3ccccc3)c2)s1 [Example 46]"
  CMP: "="
  IC50 [µM]: 0.2

----------
# TARGET_OR_TEST_SYSTEM: mTOR PI kinase-related kinase (Homo sapiens, UniProt P42345)
pIC50: −log10 of the molar value. Where a name gives a salt, the structure may show the parent alone.
EXPERIMENTAL_READOUT: pIC50

- COMPOUND: "CC(=O)Nc1nc(C)c(-c2cnc(Cl)c(NS(C)(=O)=O)c2)s1 [Example 28, trifluoroacetate]"
  RESULT: "~7.70"

----------
# TARGET_OR_TEST_SYSTEM: p110α Type Ia human PI3K (Homo sapiens)
# Construct: full length DNA of each of the p110α, p110β and p110δ Type Ia human PI3K p110 isoforms; 6-His; made in house; host or cells: baculovirus expression system (Sf9 is named only for PI3Kγ)
# Sequence (P42336 whole entry, canonical isoform): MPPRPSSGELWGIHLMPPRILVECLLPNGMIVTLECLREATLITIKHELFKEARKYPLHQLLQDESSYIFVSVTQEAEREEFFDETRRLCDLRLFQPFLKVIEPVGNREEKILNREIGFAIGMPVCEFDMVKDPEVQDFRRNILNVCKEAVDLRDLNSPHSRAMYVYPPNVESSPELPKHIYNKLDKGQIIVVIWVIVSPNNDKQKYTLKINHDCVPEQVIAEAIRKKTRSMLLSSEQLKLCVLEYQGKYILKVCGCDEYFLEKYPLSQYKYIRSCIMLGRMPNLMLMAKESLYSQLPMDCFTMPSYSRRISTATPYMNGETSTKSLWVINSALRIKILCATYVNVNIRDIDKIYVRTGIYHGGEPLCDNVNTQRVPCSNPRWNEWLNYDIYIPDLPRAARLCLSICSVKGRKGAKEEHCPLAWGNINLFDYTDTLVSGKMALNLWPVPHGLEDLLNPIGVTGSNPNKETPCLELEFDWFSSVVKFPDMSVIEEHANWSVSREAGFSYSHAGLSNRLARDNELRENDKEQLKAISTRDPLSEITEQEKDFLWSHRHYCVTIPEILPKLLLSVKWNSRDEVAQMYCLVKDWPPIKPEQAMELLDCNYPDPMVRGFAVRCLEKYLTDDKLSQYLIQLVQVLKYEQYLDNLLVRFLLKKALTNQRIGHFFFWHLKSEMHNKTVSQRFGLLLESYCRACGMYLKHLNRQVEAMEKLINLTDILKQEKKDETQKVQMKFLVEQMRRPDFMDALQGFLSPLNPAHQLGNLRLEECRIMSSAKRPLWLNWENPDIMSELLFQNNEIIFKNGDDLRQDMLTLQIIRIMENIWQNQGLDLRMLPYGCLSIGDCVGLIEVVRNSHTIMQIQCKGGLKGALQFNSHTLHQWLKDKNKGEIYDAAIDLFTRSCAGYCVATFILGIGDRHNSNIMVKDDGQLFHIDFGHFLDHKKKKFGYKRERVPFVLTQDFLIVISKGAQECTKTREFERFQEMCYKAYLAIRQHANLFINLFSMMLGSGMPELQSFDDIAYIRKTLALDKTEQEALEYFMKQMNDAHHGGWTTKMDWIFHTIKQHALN
# Sequence (P27986 whole entry partner, canonical isoform): as the sequence (P27986 whole entry partner, canonical isoform) above
# METHOD: PI 3-Kinase Assay (Additional Pharmacological Analysis, AlphaScreen)
# Assay type: biochemical
# ASSAY_CONDITIONS: 40 μM ATP
So basically: is IC50 under 0.3 µM? Then rule met. Not under? Then rule not met.

- COMPOUND: "CC(=O)Nc1nc(C)c(-c2cnc(Cl)c(NCc3ccccc3)c2)s1 [Example 46]"
  DISCRETE_LABEL: "rule met"
- COMPOUND: "CC(=O)Nc1nc(C)c(-c2cnc(Cl)c(NS(=O)(=O)CCCN3CCN(C)CC3)c2)s1 [Example 31, bis(trifluoroacetate)]"
  DISCRETE_LABEL: "rule met"
- COMPOUND: "COCC(=O)Nc1nc(C)c(-c2cnc(Cl)c(NS(=O)(=O)c3ccccc3)c2)s1 [Example 56]"
  DISCRETE_LABEL: "rule met"
- COMPOUND: "CC(=O)Nc1nc(C)c(-c2cncc(S(=O)(=O)NCCO)c2)s1 [Example 8]"
  DISCRETE_LABEL: "rule not met"
- COMPOUND: "CC(=O)Nc1nc(C)c(-c2cnc(Cl)c(S(C)(=O)=O)c2)s1 [Example 7]"
  DISCRETE_LABEL: "rule not met"

----------
# TARGET_OR_TEST_SYSTEM: p110γ Type Ib human PI3K (Homo sapiens)
# Construct: Residues 2-1102 of human PI3Kγ were inserted between the BamHI and Not1 cloning sites; His(6) (N); made in house; host or cells: baculovirus-infected Sf9 insect cells
# Sequence (P48736 2-1102): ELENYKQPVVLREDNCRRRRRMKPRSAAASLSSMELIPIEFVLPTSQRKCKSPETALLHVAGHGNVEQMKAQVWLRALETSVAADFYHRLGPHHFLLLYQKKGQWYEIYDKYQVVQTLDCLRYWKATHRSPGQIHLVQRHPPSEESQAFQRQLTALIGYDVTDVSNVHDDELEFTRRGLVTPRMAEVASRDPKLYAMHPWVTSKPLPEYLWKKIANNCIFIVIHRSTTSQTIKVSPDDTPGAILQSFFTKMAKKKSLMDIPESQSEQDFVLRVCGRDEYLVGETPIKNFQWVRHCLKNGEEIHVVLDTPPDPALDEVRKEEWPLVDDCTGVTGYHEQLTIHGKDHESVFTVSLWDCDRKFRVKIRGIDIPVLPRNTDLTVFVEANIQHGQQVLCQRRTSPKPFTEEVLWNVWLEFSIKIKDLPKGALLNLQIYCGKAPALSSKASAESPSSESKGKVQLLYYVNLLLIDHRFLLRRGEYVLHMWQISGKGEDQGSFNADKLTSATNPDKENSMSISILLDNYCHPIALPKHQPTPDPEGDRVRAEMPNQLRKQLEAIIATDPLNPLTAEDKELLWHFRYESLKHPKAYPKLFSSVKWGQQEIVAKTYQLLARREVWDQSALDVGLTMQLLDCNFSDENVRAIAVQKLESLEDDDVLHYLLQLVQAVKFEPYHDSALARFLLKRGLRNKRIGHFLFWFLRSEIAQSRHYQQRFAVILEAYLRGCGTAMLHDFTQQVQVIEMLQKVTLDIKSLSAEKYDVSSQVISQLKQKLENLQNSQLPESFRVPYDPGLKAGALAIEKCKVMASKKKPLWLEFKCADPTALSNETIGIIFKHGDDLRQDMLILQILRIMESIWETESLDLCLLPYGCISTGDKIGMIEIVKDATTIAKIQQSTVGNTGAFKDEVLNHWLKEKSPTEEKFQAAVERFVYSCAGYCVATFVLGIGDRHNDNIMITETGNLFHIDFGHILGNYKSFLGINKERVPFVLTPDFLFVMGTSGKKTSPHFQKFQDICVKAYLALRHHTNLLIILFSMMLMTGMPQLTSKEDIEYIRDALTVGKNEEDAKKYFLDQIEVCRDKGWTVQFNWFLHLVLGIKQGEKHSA
# METHOD: PI 3-Kinase Assay (Additional Pharmacological Analysis, AlphaScreen)
# Type: biochemical
# ASSAY_CONDITIONS: 40 μM ATP
So basically: is IC50 under 0.2 µM? Then T. Not under? Then F.

- MOLECULE: "COCC(=O)Nc1nc(C)c(-c2cnc(Cl)c(NS(=O)(=O)c3ccccc3)c2)s1 [Example 56]"
  DISCRETE_LABEL: "F"
- MOLECULE: "CC(=O)Nc1nc(C)c(-c2cnc(Cl)c(NS(=O)(=O)CCCN3CCN(C)CC3)c2)s1 [Example 31, bis(trifluoroacetate)]"
  DISCRETE_LABEL: "T"
- MOLECULE: "CC(=O)Nc1nc(C)c(-c2cncc(S(=O)(=O)NCCO)c2)s1 [Example 8]"
  DISCRETE_LABEL: "F"
- MOLECULE: "CC(=O)Nc1nc(C)c(-c2cnc(Cl)c(S(C)(=O)=O)c2)s1 [Example 7]"
  DISCRETE_LABEL: "F"
- MOLECULE: "CC(=O)Nc1nc(C)c(-c2cnc(Cl)c(NCc3ccccc3)c2)s1 [Example 46]"
  DISCRETE_LABEL: "T"
